Header: pIC50 / Testis-specific serine/threonine-protein kinase 2 (Homo sapiens) / multiple publications
- system: Testis-specific serine/threonine-protein kinase 2 (Homo sapiens)
- Sequence (Q96PF2 whole entry): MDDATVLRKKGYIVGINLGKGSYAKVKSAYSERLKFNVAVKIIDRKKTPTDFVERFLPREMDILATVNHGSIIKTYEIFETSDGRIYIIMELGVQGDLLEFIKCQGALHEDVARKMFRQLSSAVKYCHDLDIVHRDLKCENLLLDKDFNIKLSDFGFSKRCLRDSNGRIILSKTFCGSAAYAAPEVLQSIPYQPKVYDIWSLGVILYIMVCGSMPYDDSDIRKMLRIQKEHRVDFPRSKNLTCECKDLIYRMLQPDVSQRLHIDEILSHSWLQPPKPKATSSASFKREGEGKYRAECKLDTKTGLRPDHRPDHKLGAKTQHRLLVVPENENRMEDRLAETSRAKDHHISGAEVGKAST
pIC50: −log10 of the molar value.

The following compounds have reported results that may help.
1. CCN(CCO)Cc1cc(Nc2nc(C)cn3c(-c4cn[nH]c4)cnc23)sn1 : < 6.30
2. CCN(Cc1cc(Nc2nc(C)cn3c(-c4cn[nH]c4)cnc23)sn1)C(C)(C)CO : < 7.00
3. Cl.[2H]C([2H])(c1cc(Nc2nc(C)cn3c(-c4cn[nH]c4)cnc23)sn1)N1CCC(F)(F)C1 : < 7.00
4. Clc1ccc(-c2ccc(-c3nccn3-c3ccc(N4CCNCC4)cc3)o2)cc1 : < 4.52
5. NC(=O)c1cnc(N[C@H]2CC[C@H](N)CC2)c2nc(-c3ccc(Cl)cc3)cn12 : 4.92
6. O=C(Nc1ccc(N2CCNCC2)cc1)c1ccc(-c2ccc(Cl)cc2)o1 : < 4.52

# ---- query compound ----
// query Retrieve pIC50 measured for "CSc1cn2c(-c3cn[nH]c3)cnc2c(Nc2cc(C)ns2)n1" and print it.
// result < 5.00
